molecular target: UniProt P00371
Sequence (P00371 whole entry): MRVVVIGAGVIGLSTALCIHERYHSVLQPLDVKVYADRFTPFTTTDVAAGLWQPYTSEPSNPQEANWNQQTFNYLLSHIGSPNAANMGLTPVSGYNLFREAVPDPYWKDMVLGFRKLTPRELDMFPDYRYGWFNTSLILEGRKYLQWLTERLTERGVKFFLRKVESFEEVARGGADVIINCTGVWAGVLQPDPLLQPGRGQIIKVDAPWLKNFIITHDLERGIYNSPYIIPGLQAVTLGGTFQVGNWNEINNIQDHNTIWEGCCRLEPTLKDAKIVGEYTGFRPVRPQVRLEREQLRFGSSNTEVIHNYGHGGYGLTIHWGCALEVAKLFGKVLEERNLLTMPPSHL
pIC50: −log10 of the molar value.

{"columns": ["querySmiles", "pIC50"],
 "data": [
  ["O=C1CSc2cc(OCc3ccc(Cl)cc3)ccc2N1", 4.14]
]}

* * *

target: Amine oxidase [flavin-containing] A (Homo sapiens); assay: Inhibition of recombinant human MAO-A using kynuramine as substrate assessed as inhibition of 4-hydroxyquinoline formation incubated for 20 mins by fluorescence spectrophotometric analysis
Sequence (P21397 whole entry): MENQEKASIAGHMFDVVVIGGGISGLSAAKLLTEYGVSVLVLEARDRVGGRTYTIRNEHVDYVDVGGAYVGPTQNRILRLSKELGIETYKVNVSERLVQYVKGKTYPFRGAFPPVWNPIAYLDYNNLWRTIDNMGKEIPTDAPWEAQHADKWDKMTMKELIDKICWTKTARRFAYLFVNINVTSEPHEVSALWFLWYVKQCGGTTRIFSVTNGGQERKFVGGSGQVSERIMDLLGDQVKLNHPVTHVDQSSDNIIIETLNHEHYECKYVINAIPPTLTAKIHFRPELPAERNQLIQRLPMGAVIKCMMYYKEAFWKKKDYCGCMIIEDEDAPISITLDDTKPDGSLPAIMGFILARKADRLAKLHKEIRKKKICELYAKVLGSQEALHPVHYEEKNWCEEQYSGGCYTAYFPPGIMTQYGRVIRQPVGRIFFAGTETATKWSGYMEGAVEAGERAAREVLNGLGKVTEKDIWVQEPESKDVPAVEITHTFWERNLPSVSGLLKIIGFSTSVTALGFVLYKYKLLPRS
pIC50: −log10 of the molar value.
Examples of molecules with documented pIC50 follow.
propertyMeasured: pIC50

{"columns": ["querySmiles", "quantitativeReadout"],
 "data": [
  ["O=C1CSc2cc(O)ccc2N1", 4.72],
  ["O=C1CSc2cc(OCC3CCCCC3)ccc2N1", 5.93],
  ["COc1ccc2c(c1)SCC(=O)N2", 4.68],
  ["O=C1CSc2cc(OCc3ccc(Br)cc3)ccc2N1", 4.81],
  ["O=C1CSc2cc(OCCCc3ccccc3)ccc2N1", 4.01],
  ["O=C1CSc2cc(OCc3ccc(Cl)cc3)ccc2N1", 4.61],
  ["N#Cc1ccc(COc2ccc3c(c2)SCC(=O)N3)cc1", 6.15],
  ["O=C1CSc2cc(OCCc3ccccc3)ccc2N1", 4.88],
  ["CCCOc1ccc2c(c1)SCC(=O)N2", 5.19],
  ["O=C1CSc2cc(OCc3ccccc3)ccc2N1", 5.09]
]}
